Molecular target: HU (Mycoplasma gallisepticum)
Sequence: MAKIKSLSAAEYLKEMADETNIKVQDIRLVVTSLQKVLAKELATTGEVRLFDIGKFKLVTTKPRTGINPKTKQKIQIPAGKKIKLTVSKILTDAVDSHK
Test: EMSA
Settings: 20 mM Tris-HCl pH 8.0, 150 mM NaCl, 7% glycerol; 15 min; labelled DNA 10.5 nM; gel in 100 mM Tris-borate; temperature not stated; low values mean tight binding
readout-kind: pKd
When answering, recall that pKd equals minus log10 of the concentration in mol/L, and write that number alone.

Sample AGTCTAGAGTGCAGTTGAGTCCTTGCTACGACGGATCCCTTAGGTCAG (double strand) [D48 dsDNA (ds)] ; pKd observed: 6.36
